The values you see were collected from ChEMBL document CHEMBL1148785.

system: Plasmodium falciparum; experiment: Antimalarial activity against Plasmodium falciparum K1; type: functional; details: Plasmodium falciparum, K1; read-out: ED50 (the source's name)

{"columns": ["compound", "target entity", "value relation sign", "EC50 / nM"],
 "data": [
  ["Cn1cnc(S(=O)(=O)N(Cc2ccc(C#N)cc2)C2Cc3cc(C#N)ccc3N(Cc3cncn3C)C2)c1 (configuration not stated)", "Plasmodium falciparum", "=", 55],
  ["Cn1cncc1CN1CC(N(Cc2cccc(-n3cncn3)c2)S(=O)(=O)c2ccccn2)Cc2cc(C#N)ccc21 (configuration not stated)", "Plasmodium falciparum", "=", 590],
  ["Cn1cncc1CN1CC(N(CCCCNC(=O)OC(C)(C)C)S(=O)(=O)c2ccccn2)Cc2cc(C#N)ccc21 (configuration not stated)", "Plasmodium falciparum", "=", 375],
  ["Cn1cnc(S(=O)(=O)N(CCc2ccsc2)C2Cc3cc(C#N)ccc3N(Cc3cncn3C)C2)c1 (configuration not stated)", "Plasmodium falciparum", "=", 4.2],
  ["Cn1cnc(S(=O)(=O)N(CCN2CCCCC2)C2Cc3cc(C#N)ccc3N(Cc3cncn3C)C2)c1 (configuration not stated)", "Plasmodium falciparum", "=", 300],
  ["Cn1cncc1CN1CC(N(CC(=O)NC(C)(C)C)S(=O)(=O)CCN)Cc2cc(C#N)ccc21 (configuration not stated)", "Plasmodium falciparum", ">", 5000],
  ["CC(C)NC(=O)c1ccc2c(c1)CC(N(CC(=O)NC(C)(C)C)S(=O)(=O)c1cn(C)cn1)CN2Cc1cncn1C (configuration not stated)", "Plasmodium falciparum", "=", 2600],
  ["Cn1cnc(S(=O)(=O)N(CCc2c[nH]c3ccccc23)C2Cc3cc(C#N)ccc3N(Cc3cncn3C)C2)c1 (configuration not stated)", "Plasmodium falciparum", "=", 130],
  ["COC(=O)NCCCN(C1Cc2cc(C#N)ccc2N(Cc2cncn2C)C1)S(=O)(=O)c1ccccn1 (configuration not stated)", "Plasmodium falciparum", "=", 100],
  ["COC(=O)N1CCC(CN(C2Cc3cc(C#N)ccc3N(Cc3cncn3C)C2)S(=O)(=O)N(C)C)CC1 (configuration not stated)", "Plasmodium falciparum", "=", 2400],
  ["Cn1cncc1CN1CC(N(Cc2ccccc2F)S(=O)(=O)c2ccccc2)Cc2cc(C#N)ccc21 (configuration not stated)", "Plasmodium falciparum", "=", 750],
  ["C/C=C/C=C\\C=C\\CN(C1Cc2cc(C#N)ccc2N(Cc2cncn2C)C1)S(=O)(=O)c1ccccn1 (configuration not stated)", "Plasmodium falciparum", "=", 700],
  ["Cc1onc(-c2ccccc2)c1CN(C1Cc2cc(C#N)ccc2N(Cc2cncn2C)C1)S(=O)(=O)c1ccccn1 (configuration not stated)", "Plasmodium falciparum", "=", 56],
  ["Cn1cncc1CN1CC(N(Cc2ccc(S(C)(=O)=O)cc2)S(=O)(=O)c2cncn2C)Cc2cc(C#N)ccc21 (configuration not stated)", "Plasmodium falciparum", "<", 20],
  ["Cn1cncc1CN1CC(N(CC2CCN(C(=O)c3cccs3)CC2)S(=O)(=O)c2ccccn2)Cc2cc(C#N)ccc21 (configuration not stated)", "Plasmodium falciparum", "=", 81],
  ["Cn1cncc1CN1CC(N(CC2CCN(C(=O)OC(C)(C)C)CC2)S(=O)(=O)c2ccccn2)Cc2cc(C#N)ccc21 (configuration not stated)", "Plasmodium falciparum", "=", 180],
  ["CCOc1ccccc1CN(C1Cc2cc(C#N)ccc2N(Cc2cncn2C)C1)S(=O)(=O)c1cn(C)cn1 (configuration not stated)", "Plasmodium falciparum", "=", 3600]
]}
